Biological target: Muscarinic acetylcholine receptor M5 (Homo sapiens, UniProt P08912)
Sequence (P08912 whole entry): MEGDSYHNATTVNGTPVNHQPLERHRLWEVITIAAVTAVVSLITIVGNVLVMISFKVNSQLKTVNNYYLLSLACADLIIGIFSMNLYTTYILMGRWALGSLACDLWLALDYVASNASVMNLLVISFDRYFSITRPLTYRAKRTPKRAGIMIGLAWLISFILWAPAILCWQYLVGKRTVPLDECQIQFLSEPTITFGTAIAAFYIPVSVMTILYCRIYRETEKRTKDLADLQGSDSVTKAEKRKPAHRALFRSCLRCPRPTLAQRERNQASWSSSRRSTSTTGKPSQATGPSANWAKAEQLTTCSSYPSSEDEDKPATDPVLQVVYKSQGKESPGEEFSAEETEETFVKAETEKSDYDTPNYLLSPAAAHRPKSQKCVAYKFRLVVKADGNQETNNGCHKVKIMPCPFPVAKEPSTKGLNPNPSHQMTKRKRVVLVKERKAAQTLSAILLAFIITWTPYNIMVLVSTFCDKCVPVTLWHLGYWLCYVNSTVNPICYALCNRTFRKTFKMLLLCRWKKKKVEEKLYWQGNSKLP
pKi: −log10 of the molar value.

{"compound": "COc1ccccc1CN1CCC(C2CCN(C(=O)CCCCCCC(=O)N3CCC(C4CCN(Cc5ccccc5OC)CC4)CC3)CC2)CC1 [PIPERTRAMINE AMIDE]", "pKi": 6.74}

---

Reported EC50 is given for each of the following molecules.
Organism: Cavia porcellus
Assay: Inotropic responses, induced by the compound in electrically paced (Hz) guinea pig left atria
Assay type: functional

{"molecule": "COc1ccccc1CN1CCC(C2CCN(C)CC2)CC1", "EC50 (pM)": 603}
{"molecule": "C#CCOC(=O)C1=CCCN(C)C1", "EC50 (pM)": 7080}
{"molecule": "COc1ccccc1CN1CCC(C2CCN(CCCCCCCCN3CCC(C4CCN(Cc5ccccc5OC)CC4)CC3)CC2)CC1", "EC50 (pM)": 224}
{"molecule": "CCCCCCCCCCCCNC(CCCCN)C(N)=O (configuration not stated)", "EC50 (pM)": 339}
{"molecule": "COc1ccccc1CN1CCC(C2CCNCC2)CC1", "EC50 (pM)": 525}
{"molecule": "COc1ccccc1CN1CCC(C2CCN(C(=O)CCCCCCC(=O)N3CCC(C4CCN(Cc5ccccc5OC)CC4)CC3)CC2)CC1 [PIPERTRAMINE AMIDE]", "EC50 (pM)": 398}
{"molecule": "COc1ccccc1CN1CCC(C2CCN(C(C)=O)CC2)CC1", "EC50 (pM)": 1290}

---

Molecular target: Muscarinic acetylcholine receptor M1 (Homo sapiens)
Sequence (P11229 whole entry): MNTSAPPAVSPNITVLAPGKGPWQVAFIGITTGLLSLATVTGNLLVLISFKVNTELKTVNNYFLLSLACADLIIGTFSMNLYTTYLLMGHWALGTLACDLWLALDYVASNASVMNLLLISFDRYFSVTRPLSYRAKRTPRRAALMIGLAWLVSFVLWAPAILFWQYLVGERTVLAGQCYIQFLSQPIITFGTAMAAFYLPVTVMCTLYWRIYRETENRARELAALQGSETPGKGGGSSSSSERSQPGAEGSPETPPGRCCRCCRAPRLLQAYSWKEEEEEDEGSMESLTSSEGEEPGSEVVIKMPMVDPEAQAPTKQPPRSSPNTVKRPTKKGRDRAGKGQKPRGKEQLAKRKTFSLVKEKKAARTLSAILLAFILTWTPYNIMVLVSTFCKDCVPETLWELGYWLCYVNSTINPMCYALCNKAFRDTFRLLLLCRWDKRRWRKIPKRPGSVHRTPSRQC
Assay: Affinity for human M1 cloned muscarinic receptor subtype expressed in CHO-K1 cells
Type: cell-based
observedProperty: Ki (nM)

{"compound": "COc1ccccc1CN1CCC(C2CCN(C(=O)CCCCCCC(=O)N3CCC(C4CCN(Cc5ccccc5OC)CC4)CC3)CC2)CC1 [PIPERTRAMINE AMIDE]", "unitName": "nM", "number": 108}

---

Molecular target: Muscarinic acetylcholine receptor M2 (Homo sapiens, UniProt P08172)
Sequence (P08172 whole entry): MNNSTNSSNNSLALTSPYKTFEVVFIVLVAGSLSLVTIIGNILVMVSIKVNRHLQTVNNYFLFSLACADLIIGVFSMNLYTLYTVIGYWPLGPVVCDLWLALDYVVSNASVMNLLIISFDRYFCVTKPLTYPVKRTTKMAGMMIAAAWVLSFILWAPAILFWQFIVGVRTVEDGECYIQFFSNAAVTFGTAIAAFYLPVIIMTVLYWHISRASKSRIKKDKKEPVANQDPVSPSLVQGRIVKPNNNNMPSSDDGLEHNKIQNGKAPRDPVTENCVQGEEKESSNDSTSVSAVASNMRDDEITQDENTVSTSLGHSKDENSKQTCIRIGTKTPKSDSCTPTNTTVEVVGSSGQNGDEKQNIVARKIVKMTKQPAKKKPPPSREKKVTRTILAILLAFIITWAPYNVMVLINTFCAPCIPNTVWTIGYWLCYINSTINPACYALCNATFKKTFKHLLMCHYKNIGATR
Test: biochemical
pKi: −log10 of the molar value.
observedProperty: pKi

{"molecule": "COc1ccccc1CN1CCC(C2CCN(C(=O)CCCCCCC(=O)N3CCC(C4CCN(Cc5ccccc5OC)CC4)CC3)CC2)CC1 [PIPERTRAMINE AMIDE]", "observedProperty": "pKi", "number": 8.04}

---

Notes on Ki obtained with UniProtKB P20309.
Sequence (P20309 whole entry): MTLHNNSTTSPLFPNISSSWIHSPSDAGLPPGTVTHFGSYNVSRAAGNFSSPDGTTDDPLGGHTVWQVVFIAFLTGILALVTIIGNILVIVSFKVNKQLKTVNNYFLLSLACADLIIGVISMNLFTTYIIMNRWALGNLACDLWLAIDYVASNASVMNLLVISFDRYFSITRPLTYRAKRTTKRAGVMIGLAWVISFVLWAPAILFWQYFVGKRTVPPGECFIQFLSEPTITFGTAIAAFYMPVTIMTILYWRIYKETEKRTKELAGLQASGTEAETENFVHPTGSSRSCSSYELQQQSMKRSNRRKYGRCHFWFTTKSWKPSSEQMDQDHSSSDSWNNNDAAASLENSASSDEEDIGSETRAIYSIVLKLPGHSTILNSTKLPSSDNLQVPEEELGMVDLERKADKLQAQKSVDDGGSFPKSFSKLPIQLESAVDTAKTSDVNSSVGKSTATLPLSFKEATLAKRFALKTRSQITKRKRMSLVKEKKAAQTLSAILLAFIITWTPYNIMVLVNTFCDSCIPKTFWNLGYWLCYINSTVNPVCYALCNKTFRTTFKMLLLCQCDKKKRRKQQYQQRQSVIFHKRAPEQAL

{"compound": "COc1ccccc1CN1CCC(C2CCN(CCCCCCCCN3CCC(C4CCN(Cc5ccccc5OC)CC4)CC3)CC2)CC1 [PIPERTRAMINE]", "Ki, nM": 422}
{"compound": "COc1ccccc1CN1CCC(C2CCN(C(=O)CCCCCCC(=O)N3CCC(C4CCN(Cc5ccccc5OC)CC4)CC3)CC2)CC1 [PIPERTRAMINE AMIDE]", "Ki, nM": 97.2}

---

Target: Muscarinic acetylcholine receptor M2 (Homo sapiens, UniProt P08172)
Experiment: Binding affinity against muscarinic acetylcholine receptor M2
pKi: −log10 of the molar value.

{"compound": "COc1ccccc1CN1CCC(C2CCN(CCCCCCCCN3CCC(C4CCN(Cc5ccccc5OC)CC4)CC3)CC2)CC1 [PIPERTRAMINE]", "target": "Muscarinic acetylcholine receptor M2 (Homo sapiens, UniProt P08172)", "pKi": 8.07}
